# System: M. tuberculosis H37Rv
# experiment_notes: MIC by resazurin reduction microplate assay (REMA)
# Assay type: cell-based, Mycobacterium tuberculosis
# experimental_parameters: Mycobacterium tuberculosis, H37RV, 144 h; read-out: Antimycobacterial activity against M. tuberculosis H37Rv, in vitro (MIC)
property: MIC (µg/mL)
Report as a plain number; the unit µg/mL is understood.

For orientation, consider the following solved cases.
O=C(/C=C/c1cscn1)N1CCN(Cc2ccc3c(c2)OCO3)CC1	0.1
O=C(/C=C/c1cccs1)N1CCN(Cc2ccc3c(c2)OCO3)CC1	0.05
O=C(/C=C/c1nccs1)N1CCN(Cc2ccc3c(c2)OCO3)CC1	0.3

q: For O=C(/C=C/c1ccccc1)N1CCN(Cc2ccc3c(c2)OCO3)CC1 , what is its reported MIC?
a: 0.2

q: Next entry: O=C(/C=C/c1ccsc1)N1CCN(Cc2ccc3c(c2)OCO3)CC1
a: 0.1

* * *

# experiment_notes: in vitro
# experimental_parameters: mouse, microsomes
Examples of molecules with documented microsomal CLint at 2 µg/ml follow.
Reply numerically in µL/min/mg, unit not repeated.

Example entries and their recorded answers appear below.
O=C(/C=C/c1cccs1)N1CCN(Cc2ccc3c(c2)OCO3)CC1	120
O=C(/C=C/c1ccccc1)N1CCN(Cc2ccc3c(c2)OCO3)CC1	63.8

q: Requested read-out: microsomal CLint at 2 µg/ml. Entry: O=C(/C=C/c1ccsc1)N1CCN(Cc2ccc3c(c2)OCO3)CC1
a: 117

* * *

# Tested on: HepG2 cells
# Format: cell-based, human
# experimental_parameters: 3 days incubation
property: Cytotoxicity in HepG2 cells (TD50) (µg/mL)
// return numeric value only (unit: µg/mL, not printed)

Consider the reported Cytotoxicity in HepG2 cells (TD50) for these compounds:
O=C(/C=C/c1cscn1)N1CCN(Cc2ccc3c(c2)OCO3)CC1	25
O=C(/C=C/c1nccs1)N1CCN(Cc2ccc3c(c2)OCO3)CC1	75
O=C(/C=C/c1ccsc1)N1CCN(Cc2ccc3c(c2)OCO3)CC1	37.5
O=C(/C=C/c1cccs1)N1CCN(Cc2ccc3c(c2)OCO3)CC1	50

Shift focus to the following entry.
q: Recorded Cytotoxicity in HepG2 cells (TD50) of O=C(/C=C/c1ccccc1)N1CCN(Cc2ccc3c(c2)OCO3)CC1 , please.
a: 37.5

* * *

# experiment_notes: in vitro
# experimental_parameters: human, microsomes
// reported microsomal CLint at 2 µg/ml per item
Answer with a number only, understood to be in µL/min/mg.

O=C(/C=C/c1cccs1)N1CCN(Cc2ccc3c(c2)OCO3)CC1 [AX-35]	21.7
O=C(/C=C/c1ccccc1)N1CCN(Cc2ccc3c(c2)OCO3)CC1 [AX-38]	13.3

q: Endpoint output: microsomal CLint at 2 µg/ml of O=C(/C=C/c1ccsc1)N1CCN(Cc2ccc3c(c2)OCO3)CC1 [AX-36] . Value?
a: 16.8
